Tested on: Saccharomyces cerevisiae
Test: protein stability index of tFT-peptide fusion (C-terminal peptide) (PSI (0-1 scale)); higher = more stable (slower turnover)
Conditions: genetic background: wild type; temperature: 30 C
Listed here: items and their measured protein stability index.
Reported Endpoint: protein stability index

seq_string="INRRQTPLQSNA [CDC39 C-terminal 12 aa]" assay_target="Saccharomyces cerevisiae" result=0.666
seq_string="IHFGETSNYSFD [SMC5 C-terminal 12 aa]" assay_target="Saccharomyces cerevisiae" result=0.698
seq_string="ADARDKFVDLYN [ADD66 C-terminal 12 aa]" assay_target="Saccharomyces cerevisiae" result=0.708
seq_string="FKKSVDQMNAST [PSY2 C-terminal 12 aa]" assay_target="Saccharomyces cerevisiae" result=0.691
seq_string="LAVEETIGFGQE [RSP5 C-terminal 12 aa]" assay_target="Saccharomyces cerevisiae" result=0.692
seq_string="GFQATVGKRRRM [SUI3 C-terminal 12 aa]" assay_target="Saccharomyces cerevisiae" result=0.703

====

Tested on: Saccharomyces cerevisiae
Assay: protein stability index of tFT-peptide fusion (C-terminal peptide) (PSI (0-1 scale)); higher = more stable (slower turnover)
Conditions: genetic background: wild type; temperature: 30 C
Reported Endpoint: protein stability index

seq_string=AVGGWRAAGGGG result=0.711
seq_string=VGIFKVCALVLR result=0.483
seq_string=SPPLPPLGFNPP result=0.641
seq_string=SRPLPLPPRPLP result=0.647
seq_string=GCWHFWQFFCHY result=0.678
seq_string=LVGSGLFGWGWN result=0.769

====

Test system: Saccharomyces cerevisiae
Test: protein stability index of tFT-peptide fusion (C-terminal peptide) (PSI (0-1 scale)); higher = more stable (slower turnover)
Details: genetic background: das1 deletion; temperature: 30 C
Quick rule: protein stability index of at least 0.7 means class 1, below that means class 0.

seq_string="KEFKQFEFHNRR [RRP36 C-terminal 12 aa]" class="class 1"
seq_string="VPDIPPPPALVA [NUP42 C-terminal 12 aa]" class="class 0"
seq_string="MGVVAAVGVALL [ECM33 C-terminal 12 aa]" class="class 0"

====

Below: a set of entries, each annotated with reported protein stability index.
Tested on: Saccharomyces cerevisiae
Experiment: protein stability index of tFT-peptide fusion (C-terminal peptide) (PSI (0-1 scale)); higher = more stable (slower turnover)
Settings: genetic background: wild type; temperature: 30 C
Reported Endpoint: protein stability index

seq_string=PCLSRPSTPPSS result=0.674
seq_string=YGWILQLPCFVI result=0.338
seq_string=DCIAFVPRDRRS result=0.614
seq_string=PPPLFPALHHPP result=0.639
seq_string=SEAGSVMPIGLV result=0.642
seq_string=HAISHRVFLHSP result=0.665
seq_string=SGMGGCRKGFEG result=0.717
seq_string=PPLLPLSPRPPA result=0.704
seq_string=FAVLSFRFPGGL result=0.693
seq_string=LRCVPAVFFACK result=0.647
seq_string=GGSRRRAVGAGV result=0.709
seq_string=LHRFPMISLLGP result=0.699
seq_string=PPRPPGFPPALF result=0.697
seq_string=ASRPPAPVPLPL result=0.686
seq_string=RLCDAAVGPEGG result=0.674
seq_string=CFVISVLFFFVG result=0.444

====

Test system: Saccharomyces cerevisiae
Assay: protein stability index of tFT-peptide fusion (C-terminal peptide) (PSI (0-1 scale)); higher = more stable (slower turnover)
Conditions: genetic background: wild type; temperature: 30 C
Reported protein stability index values are given for each entry in this list.
Reported Endpoint: protein stability index

seq_string=LEGYFMLPRSAW result=0.736
seq_string=EKLEGRKIIKKK result=0.693
seq_string=SVFWCFHVLFWS result=0.39
seq_string=ITIPICTTFHHV result=0.731
seq_string=PWGGMNWGGLSV result=0.745
seq_string=LARLPPPSLSRV result=0.713
seq_string=GGWGWEGRGGSG result=0.677
seq_string=GSQSPKEEYHES result=0.632
seq_string=LCSGRGGRVCGG result=0.669
seq_string=KNDLHGLFLMSE result=0.648
seq_string=IVGRGGRGGWGV result=0.685
seq_string=AELVVRNGVGGI result=0.831
seq_string=FRLPTCLLLFPF result=0.594
seq_string=KRGYLRTNPLSY result=0.706
seq_string=TLEGRQKEMGIA result=0.691
seq_string=KWCQSNNIVKRT result=0.7
seq_string=PLPRPPPPANSP result=0.714
seq_string=MVSFEWCLARSY result=0.501
seq_string=VCLGAWGEGGRG result=0.664
seq_string=RTGVTKYSETLI result=0.677
seq_string=SLRICGAFPRTF result=0.705
seq_string=PPLALPPGPARP result=0.738
seq_string=MMYTLSMLLRLR result=0.513
seq_string=GLTWFRQARAAL result=0.718
seq_string=SDVHGLSLSDVS result=0.632
seq_string=EVRGKSVTIFVR result=0.57
seq_string=PRPALRPLPVYP result=0.612
seq_string=TVPFGLPVRPSP result=0.746
seq_string=LSSITLTYVSDF result=0.781
seq_string=LKNVKFTNNRKK result=0.694
seq_string=SPSPPPASPPAP result=0.654
seq_string=SVLPELHAVPLF result=0.679
seq_string=AAPAAPATPSPR result=0.716
seq_string=PPPLPPRLPHLA result=0.664
seq_string=RGRSLPIPHTFP result=0.714
seq_string=RNGGSTWPLLGA result=0.721
seq_string=FKKIKGKIEKKN result=0.481
seq_string=SRPLPPSLPPPP result=0.756
seq_string=VQIALTLNSPSL result=0.605
seq_string=PPPVLSLPPLPV result=0.668
seq_string=SSRTFRFRPPTI result=0.702
seq_string=AICRVGGFGRKD result=0.717
seq_string=FRLLLFPLPLSP result=0.494
seq_string=PLPPPPPPPPRL result=0.678
seq_string=SCFFFSWIRGFC result=0.598
seq_string=ITRDFQLWASDL result=0.708
seq_string=TRGPKYTMVVKR result=0.672
seq_string=GGRTRPGGLSRP result=0.678
seq_string=RRVTTSFWPLGS result=0.671
seq_string=SSVRIGRNLYVW result=0.754
seq_string=MYPAYNRVRFEL result=0.657
seq_string=IFVFVSFPSCVL result=0.468
seq_string=DSCQALIWLVFT result=0.586
seq_string=GGYGAGLRSPLF result=0.736
